tested on: α-glucosidase (Yeast); test: Fluorescence quenching (Stern–Volmer) and thermodynamic parameters; assay type: binding; conditions: 298 K
METRIC NAME: KSV (L/mol)
Quick note: give the figure in L/mol, leave out the unit.

Identify the measured KSV of "C[C@@H]1O[C@@H](OC[C@H]2O[C@@H](Oc3c(-c4ccc(O)c(O)c4)oc4cc(O)cc(O)c4c3=O)[C@H](O)[C@@H](O)[C@@H]2O)[C@H](O)[C@H](O)[C@H]1O" for α-glucosidase (Yeast).
45000

Identify the measured KSV of "C[C@@H]1O[C@@H](Oc2c(-c3ccc(O)c(O)c3)oc3cc(O)cc(O)c3c2=O)[C@H](O)[C@H](O)[C@H]1O" for α-glucosidase (Yeast).
74500

Identify the measured KSV of "O=c1c(O)c(-c2ccc(O)c(O)c2)oc2cc(O)cc(O)c12" for α-glucosidase (Yeast).
107100

Identify the measured KSV of O=c1c(O[C@@H]2O[C@H](CO)[C@H](O)[C@H](O)[C@H]2O)c(-c2ccc(O)c(O)c2)oc2cc(O)cc(O)c12 [Hyperoside, hyperoside] for α-glucosidase (Yeast).
124300

Identify the measured KSV of "O=c1c(O)c(-c2ccc(O)cc2)oc2cc(O)cc(O)c12" for α-glucosidase (Yeast).
222300

---

test system: α-glucosidase (Yeast); test: Fluorescence quenching (Stern–Volmer) and thermodynamic parameters; assay type: binding; conditions: 310 K
Can you tell me KSV for the items I'm about to list?
Quick note: give the figure in L/mol, leave out the unit.

What value of KSV has been recorded for this entry: "C[C@@H]1O[C@@H](OC[C@H]2O[C@@H](Oc3c(-c4ccc(O)c(O)c4)oc4cc(O)cc(O)c4c3=O)[C@H](O)[C@@H](O)[C@@H]2O)[C@H](O)[C@H](O)[C@H]1O"
93400

What value of KSV has been recorded for this entry: O=c1c(O[C@@H]2O[C@H](CO)[C@H](O)[C@H](O)[C@H]2O)c(-c2ccc(O)c(O)c2)oc2cc(O)cc(O)c12 [Hyperoside, hyperoside]
111700

What value of KSV has been recorded for this entry: "C[C@@H]1O[C@@H](Oc2c(-c3ccc(O)c(O)c3)oc3cc(O)cc(O)c3c2=O)[C@H](O)[C@H](O)[C@H]1O"
54500

What value of KSV has been recorded for this entry: "O=c1c(O)c(-c2ccc(O)cc2)oc2cc(O)cc(O)c12"
424600

What value of KSV has been recorded for this entry: "O=c1c(O)c(-c2ccc(O)c(O)c2)oc2cc(O)cc(O)c12"
55500

---

test system: α-glucosidase (Yeast); experiment: Fluorescence quenching (Stern–Volmer) and thermodynamic parameters; assay type: binding; details: 303 K
# KSV >= 80000 L/mol gives fulfilled, anything below gives not fulfilled

Please indicate if the recorded KSV for O=c1c(O[C@@H]2O[C@H](CO)[C@H](O)[C@H](O)[C@H]2O)c(-c2ccc(O)c(O)c2)oc2cc(O)cc(O)c12 [Hyperoside, hyperoside] meets or exceeds 80000 L/mol.
fulfilled

Please indicate if the recorded KSV for "C[C@@H]1O[C@@H](OC[C@H]2O[C@@H](Oc3c(-c4ccc(O)c(O)c4)oc4cc(O)cc(O)c4c3=O)[C@H](O)[C@@H](O)[C@@H]2O)[C@H](O)[C@H](O)[C@H]1O" meets or exceeds 80000 L/mol.
fulfilled

Please indicate if the recorded KSV for "O=c1c(O)c(-c2ccc(O)c(O)c2)oc2cc(O)cc(O)c12" meets or exceeds 80000 L/mol.
not fulfilled

Please indicate if the recorded KSV for "O=c1c(O)c(-c2ccc(O)cc2)oc2cc(O)cc(O)c12" meets or exceeds 80000 L/mol.
fulfilled
